Overview of recorded TGI for various compounds
tested on: HCT-15 colon; test: NCI tumour cell line growth inhibition, 48 h

{"compound": "CCCCCCCCCCCCCCCCOCC(O)CO (stereo not drawn)", "TGI": "35.9 µM"}
{"compound": "O=C1c2cc([N+](=O)[O-])sc2C(=O)c2c([N+](=O)[O-])csc21", "TGI": "4.41 µM"}
{"compound": "Nc1c(C(=O)Nc2cccc3ccccc23)sc2nc3c(cc12)C(=O)CCC3", "TGI": "> 100 µM"}
{"compound": "COc1ccc(-c2n/c(=C\\c3c(O)[nH]c4ccccc34)cc3c2=Nc2ccccc2-3)cc1", "TGI": "4.13 µM"}
{"compound": "CC(C)C(NC(=O)C(Cc1ccccc1)NC(=O)[C@H]1CCC[C@H]1NC(=O)C(Cc1ccc(OC(C)(C)C)cc1)NC(=O)OC(C)(C)C)C(N)=O (stereo partly drawn)", "TGI": "> 100 µM"}
{"compound": "CC(=O)NC1C(OCc2ccccc2)OC(CO)C(O)C1OCC(=O)N[C@@H](C)C(=O)N[C@H](CCC(=O)NCCCNc1ccc([N+](=O)[O-])c2[nH]c3ccccc3c(=O)c12)C(N)=O (stereo partly drawn)", "TGI": "> 100 µM"}
{"compound": "CN/N=C(\\C(=O)Nc1ccc(C)c(C)c1)C(C(=O)OC)c1nc2ccc([N+](=O)[O-])cc2[nH]c1=O (stereo not drawn)", "TGI": "> 100 µM"}
{"compound": "O=C1C(c2c(O)[nH]c3ccc(S(=O)(=O)NCCO)cc23)=Nc2ccccc21", "TGI": "> 100 µM"}

Each recorded value in this set is attributed to PubChem BioAssay (NCI).
